Source listed as patent US5969017A.

Study Target: hKv1.5 expressed in Chinese Hamster Ovary (CHO) cells (Homo sapiens)
Construct: expressed in transfected cells; host or cells: CHO-K1 cells (CHOKI in source), pcDNAI/Neo plasmid, G418-selected clones
Sequence (P22460 whole entry): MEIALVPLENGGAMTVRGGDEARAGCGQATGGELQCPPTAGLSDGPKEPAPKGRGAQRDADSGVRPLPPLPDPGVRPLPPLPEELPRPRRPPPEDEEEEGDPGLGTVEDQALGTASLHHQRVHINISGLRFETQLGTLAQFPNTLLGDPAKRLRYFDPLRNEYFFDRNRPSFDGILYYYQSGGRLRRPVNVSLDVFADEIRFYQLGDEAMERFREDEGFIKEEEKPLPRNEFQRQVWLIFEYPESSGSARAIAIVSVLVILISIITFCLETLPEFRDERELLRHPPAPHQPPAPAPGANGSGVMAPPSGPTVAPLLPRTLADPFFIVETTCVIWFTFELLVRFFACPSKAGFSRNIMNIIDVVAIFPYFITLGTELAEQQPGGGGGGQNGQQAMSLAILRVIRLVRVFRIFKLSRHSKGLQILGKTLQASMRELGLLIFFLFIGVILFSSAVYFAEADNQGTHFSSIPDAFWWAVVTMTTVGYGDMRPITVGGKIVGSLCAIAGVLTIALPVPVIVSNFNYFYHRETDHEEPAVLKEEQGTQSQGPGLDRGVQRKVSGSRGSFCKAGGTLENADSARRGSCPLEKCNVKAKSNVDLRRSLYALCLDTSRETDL
Experiment Description: Voltage clamp measurement of hKv1.5 block (rested state, use-dependent, rate-dependent) in CHO cells
Assay type: cell-based
Test Context: 100 nM, 1st pulse @ 1 Hz, read-out: Average % Block, Rested State, 1st pulse
Observable: inhibition at 0.1 µM (%)

Previously resolved entries follow.
COc1ccc(-n2nc(Sc3ccc(C)cc3)c(C)c(C#N)c2=O)cc1: 31.1
Cc1cc(C)c(CP(=O)(c2ccccc2)c2ccccc2)c(-c2ccc(F)c(C)c2)c1: 23.3

[a] CC1CCC(C(C)C)C(P(=O)(c2ccccc2)c2ccccc2)C1 (stereo not shown)
[b] COc1ccc(-n2nc(Sc3ccc(Cl)cc3)c(C)c(C#N)c2=O)cc1
Q: Hi there, can you help? I need to know whether a or b has lower measured inhibition at 0.1 µM. // caller expects the label of the chosen entry
A: a
(a: 32.1%, b: 51%)
